Molecular target: TAAR1 (Mus musculus (Mouse), UniProt Q923Y8)
Sequence (Q923Y8 whole entry): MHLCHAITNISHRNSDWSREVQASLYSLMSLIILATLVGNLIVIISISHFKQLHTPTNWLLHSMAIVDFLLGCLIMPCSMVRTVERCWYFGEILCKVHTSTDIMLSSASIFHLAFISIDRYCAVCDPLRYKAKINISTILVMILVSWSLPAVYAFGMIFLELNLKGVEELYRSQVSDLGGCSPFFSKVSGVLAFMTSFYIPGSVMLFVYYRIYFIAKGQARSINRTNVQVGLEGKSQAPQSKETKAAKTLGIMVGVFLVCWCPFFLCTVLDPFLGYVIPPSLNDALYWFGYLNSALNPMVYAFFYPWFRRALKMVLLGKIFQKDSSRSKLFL
Assay: Radioligand binding assay on TAAR1 (membranes of stably transfected HEK293 cells)
Details: competition with [3H]-rac-2-(1,2,3,4-tetrahydro-1-naphthyl)-2-imidazoline, 4° C., 30 min
observation type: Ki (µM)

compound: NC1=N[C@@H](CCOc2ccc(F)c(Cl)c2)CO1 [Example 8]
assay target: TAAR1 (Mus musculus (Mouse), UniProt Q923Y8)
observation type: Ki
observed result: 0.0002
//
compound: C[C@@H](C[C@H]1COC(N)=N1)Oc1ccc(F)c(F)c1 [Example 69]
assay target: TAAR1 (Mus musculus (Mouse), UniProt Q923Y8)
observation type: Ki
observed result: 0.008
//
compound: NC1=N[C@@H](CCC2(c3cc(F)cc(F)c3)CC2)CO1 [Example 142]
assay target: TAAR1 (Mus musculus (Mouse), UniProt Q923Y8)
observation type: Ki
observed result: 0.0013
//
compound: NC1=N[C@@H](CCC2(c3ccc(Cl)cc3)CC2)CO1 [Example 30]
assay target: TAAR1 (Mus musculus (Mouse), UniProt Q923Y8)
observation type: Ki
observed result: 0.0004
//
compound: NC1=N[C@@H](CCOc2ccc(Oc3ccccc3)cc2)CO1 [Example 36]
assay target: TAAR1 (Mus musculus (Mouse), UniProt Q923Y8)
observation type: Ki
observed result: 0.0039
//
compound: C[C@@H](C[C@H]1COC(N)=N1)Oc1ccc(Cl)c(Cl)c1 [Example 75]
assay target: TAAR1 (Mus musculus (Mouse), UniProt Q923Y8)
observation type: Ki
observed result: 0.001
//
compound: CC[C@@H](C[C@H]1COC(N)=N1)Oc1ccc(Cl)c(Cl)c1 [Example 122]
assay target: TAAR1 (Mus musculus (Mouse), UniProt Q923Y8)
observation type: Ki
observed result: 0.0007
//
compound: CC[C@@H](C[C@H]1COC(N)=N1)Oc1ccc(Cl)c(F)c1 [Example 113]
assay target: TAAR1 (Mus musculus (Mouse), UniProt Q923Y8)
observation type: Ki
observed result: 0.0037
//
compound: C[C@@H](C[C@H]1COC(N)=N1)Oc1ccc(Cl)cc1F [Example 73]
assay target: TAAR1 (Mus musculus (Mouse), UniProt Q923Y8)
observation type: Ki
observed result: 0.0021
//
compound: NC1=N[C@@H](CCOc2cccc(-c3ccccc3)c2)CO1 [Example 33]
assay target: TAAR1 (Mus musculus (Mouse), UniProt Q923Y8)
observation type: Ki
observed result: 0.0018
